tested on: STS26T; assay: % inhibition of CellTiter-Glo viability at highest tested concentration (72 h), relative to DMSO and benzethonium chloride controls; higher = more inhibition
Returns satisfied if the recorded % inhibition is greater than or equal to 30%, and not satisfied otherwise.

compound	discreteLabel
N#Cc1ccc(C(c2ccc(C#N)cc2)n2cncn2)cc1 [Letrozole] (max concentration tested 10000 nM)	not satisfied
CC(C)(C)c1nc(-c2cccc(NS(=O)(=O)c3c(F)cccc3F)c2F)c(-c2ccnc(N)n2)s1 [Dabrafenib] (max concentration tested 2500 nM)	satisfied
COc1cc(OC2CCN(C)CC2)ccc1Nc1ncc2c(n1)n(C1CCCC1)c(=O)n2C [AZ 3146] (max concentration tested 10000 nM)	satisfied
O=c1[nH]cc(F)c(=O)[nH]1 [Fluorouracil] (max concentration tested 10000 nM)	satisfied
C=CC[C@@H]1/C=C(\C)C[C@H](C)C[C@H](OC)[C@H]2O[C@@](O)(C(=O)C(=O)N3CCCC[C@H]3C(=O)O[C@H](/C(C)=C/[C@@H]3CC[C@@H](O)[C@H](OC)C3)[C@H](C)[C@@H](O)CC1=O)[C@H](C)C[C@@H]2OC [Tacrolimus] (max concentration tested 10000 nM)	not satisfied
CC(O)(CS(=O)(=O)c1ccc(F)cc1)C(=O)Nc1ccc(C#N)c(C(F)(F)F)c1 (configuration not stated) [Bicalutamide] (max concentration tested 10000 nM)	not satisfied
CCCS(=O)(=O)Nc1ccc(F)c(C(=O)c2c[nH]c3ncc(-c4ccc(Cl)cc4)cc23)c1F [Vemurafenib] (max concentration tested 10000 nM)	satisfied
O=NN(CCCl)C(=O)NCCCl [Carmustine] (max concentration tested 10000 nM)	not satisfied
c1ccc2c(CCNc3ccc(Nc4ccncc4)cc3)c[nH]c2c1 [Serdemetan] (max concentration tested 10000 nM)	satisfied
O=C(Nc1cccnc1)N1CCC(Cc2cccc(Oc3ccc(C(F)(F)F)cn3)c2)CC1 [PF-3845] (max concentration tested 10000 nM)	not satisfied
O=C(Nc1ccncc1)C(=O)c1cn(Cc2ccc(Cl)cc2)c2ccccc12 [Indibulin] (max concentration tested 10000 nM)	satisfied
CC(C)C[C@H](NC(=O)[C@H](CCc1ccccc1)NC(=O)CN1CCOCC1)C(=O)N[C@@H](Cc1ccccc1)C(=O)N[C@@H](CC(C)C)C(=O)[C@@]1(C)CO1 [Carfilzomib] (max concentration tested 1000 nM)	satisfied
